Entries annotated with measured fluorescence slope
- assaySystem: Voltage-gated potassium channel subunit beta-2 (Rattus norvegicus) (UniProt P62483)
- Sequence (P62483 whole entry, looked up): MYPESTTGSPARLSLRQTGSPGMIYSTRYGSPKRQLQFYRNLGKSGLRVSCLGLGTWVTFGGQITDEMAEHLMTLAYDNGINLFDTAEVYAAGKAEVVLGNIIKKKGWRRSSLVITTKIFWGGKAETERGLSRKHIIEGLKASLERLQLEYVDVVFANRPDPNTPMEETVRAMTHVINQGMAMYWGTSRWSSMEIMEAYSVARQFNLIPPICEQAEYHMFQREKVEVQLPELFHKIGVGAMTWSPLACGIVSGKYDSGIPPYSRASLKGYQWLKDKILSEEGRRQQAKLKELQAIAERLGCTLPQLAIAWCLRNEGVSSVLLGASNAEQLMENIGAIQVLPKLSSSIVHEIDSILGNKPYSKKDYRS
- assayName: inhibitors of rat Kvbeta2 reductase activity – biochemical, NADPH fluorescence, primary screen (AID 622);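 further: slope of raw intensity against log time taken from 70 to 1610 s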
- appliedConditions: recombinant KvBeta, 4-cyanobenzaldehyde reduction, at 10 µM, stronger effect = higher value
Please reply with the number alone, leaving off any unit.

compound: COc1ccccc1OCC(=O)N1CCNC1=O
assaySystem: Voltage-gated potassium channel subunit beta-2 (Rattus norvegicus) (UniProt P62483)
fluorescence slope: -0.548

compound: CCN(CC)S(=O)(=O)c1ccc(NC(=O)CN(c2cccc(F)c2)S(C)(=O)=O)cc1
assaySystem: Voltage-gated potassium channel subunit beta-2 (Rattus norvegicus) (UniProt P62483)
fluorescence slope: -0.449

compound: Cc1onc(-c2ccccc2Cl)c1C(=O)N1CCc2ccccc21
assaySystem: Voltage-gated potassium channel subunit beta-2 (Rattus norvegicus) (UniProt P62483)
fluorescence slope: -0.405

compound: COC(=O)CC1C(=O)NCCN1C(=O)NC1CCCCC1 (configuration not stated)
assaySystem: Voltage-gated potassium channel subunit beta-2 (Rattus norvegicus) (UniProt P62483)
fluorescence slope: -0.559

compound: C(=N/n1c2ccccc2c2ccccc21)/c1ccco1
assaySystem: Voltage-gated potassium channel subunit beta-2 (Rattus norvegicus) (UniProt P62483)
fluorescence slope: -0.417

Ask | GET /values?readout=fluorescence slope&system=Voltage-gated potassium channel subunit beta-2 (Rattus norvegicus) (UniProt P62483)&item= N#CCC(=O)N1CCn2c1nc1ccccc12
Reply | -0.492

Ask | Recall the recorded fluorescence slope for Cn1c(Cc2ccccc2)nnc1SCC(=O)c1ccc(Br)s1 with Voltage-gated potassium channel subunit beta-2 (Rattus norvegicus) (UniProt P62483) and state it.
Reply | -0.596

Ask | Write down the reported fluorescence slope of COc1ccc(N2CCN(C(c3ccccc3)c3sc4nc(C)nn4c3O)CC2)cc1 (configuration not stated) , test system: Voltage-gated potassium channel subunit beta-2 (Rattus norvegicus) (UniProt P62483).
Reply | -0.452

Ask | Hi! What's the reported fluorescence slope for NC(=O)CN1C(=O)C(O)(CC(=O)c2ccccc2O)c2ccccc21 (configuration not stated) on Voltage-gated potassium channel subunit beta-2 (Rattus norvegicus) (UniProt P62483)?
Reply | -0.395

Ask | Recorded fluorescence slope for CC(C)(Oc1ccc(Cl)cc1)C(=O)NCc1ccncc1 with Voltage-gated potassium channel subunit beta-2 (Rattus norvegicus) (UniProt P62483), please?
Reply | -0.297

Ask | Missing value: fluorescence slope, Voltage-gated potassium channel subunit beta-2 (Rattus norvegicus) (UniProt P62483), entry COc1cc2c(cc1OC)C(c1cccnc1)CC(=O)N2 (configuration not stated) . Fill in?
Reply | -0.513

Ask | Identify the measured fluorescence slope of COc1cc(/C=N/n2cnnc2)ccc1OCC(=O)N1CCOCC1 for Voltage-gated potassium channel subunit beta-2 (Rattus norvegicus) (UniProt P62483).
Reply | -0.245

Source listed as PubChem BioAssay.
